System: human TLR9 (Homo sapiens, UniProt Q9NR96)
Sequence (Q9NR96 26-1032): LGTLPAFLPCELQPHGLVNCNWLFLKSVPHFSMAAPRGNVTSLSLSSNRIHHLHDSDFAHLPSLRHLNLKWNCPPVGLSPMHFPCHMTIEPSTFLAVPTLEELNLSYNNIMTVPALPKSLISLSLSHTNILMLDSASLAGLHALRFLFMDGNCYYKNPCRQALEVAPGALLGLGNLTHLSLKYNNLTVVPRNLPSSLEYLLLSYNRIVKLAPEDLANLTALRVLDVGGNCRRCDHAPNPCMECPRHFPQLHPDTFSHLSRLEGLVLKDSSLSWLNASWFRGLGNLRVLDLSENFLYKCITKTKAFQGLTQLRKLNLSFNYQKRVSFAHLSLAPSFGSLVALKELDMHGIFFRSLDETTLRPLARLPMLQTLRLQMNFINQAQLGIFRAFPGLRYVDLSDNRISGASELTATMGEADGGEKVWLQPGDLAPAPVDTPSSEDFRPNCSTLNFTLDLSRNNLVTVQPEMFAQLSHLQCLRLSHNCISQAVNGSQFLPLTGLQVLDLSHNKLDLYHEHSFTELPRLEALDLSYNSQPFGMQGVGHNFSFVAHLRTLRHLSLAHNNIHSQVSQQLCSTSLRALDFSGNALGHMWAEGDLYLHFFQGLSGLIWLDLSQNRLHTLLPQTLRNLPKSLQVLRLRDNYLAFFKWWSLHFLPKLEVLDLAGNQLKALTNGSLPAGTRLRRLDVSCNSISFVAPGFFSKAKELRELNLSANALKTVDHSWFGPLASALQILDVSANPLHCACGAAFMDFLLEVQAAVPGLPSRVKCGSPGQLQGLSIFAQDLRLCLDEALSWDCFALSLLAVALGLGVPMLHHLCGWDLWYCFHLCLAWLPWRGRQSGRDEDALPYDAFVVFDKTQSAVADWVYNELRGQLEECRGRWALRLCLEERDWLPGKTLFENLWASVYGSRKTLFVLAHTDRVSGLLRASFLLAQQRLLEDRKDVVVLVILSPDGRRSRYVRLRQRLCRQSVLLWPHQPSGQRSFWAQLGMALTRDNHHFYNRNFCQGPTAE
Assay Method Text: TLR9 inhibition reporter assay (HEK-Blue cells, SEAP reporter, ODN2006 stimulation)
Test Context: HEK-Blue cells overexpressing human TLR9, SEAP reporter, ODN2006 5 nM
Parameter: IC50 (nM)

Sample answers from the record:
> print(dat)
                                   compound                                    system  reading.unit  numeric.readout
1  COc1cc(-c2[nH]c3ccc(C4CN(C)CCO4)cc3c2C(C)C)cn2ncnc12 (centres unmarked) [Example 299]  human TLR9 (Homo sapiens, UniProt Q9NR96)            nM             5570
2  COc1cc(-c2[nH]c3ccc(CCC4CNC4)cc3c2C(C)C)cn2ncnc12  human TLR9 (Homo sapiens, UniProt Q9NR96)            nM             1480
3  Cc1c(-c2[nH]c3ccc(C4CN(C5CCOC5)C4)cc3c2C(C)C)cn2cnnc2c1C (centres unmarked)  human TLR9 (Homo sapiens, UniProt Q9NR96)            nM            16500

a = CNC1CCC(c2ccc3[nH]c(-c4cc(C)nc(C)c4)c(C(C)C)c3c2)CC1 (single isomer, unassigned) [Example 51]
b = Cc1cc(-c2[nH]c3ccc(CC4CCCN4Cc4ccccc4)cc3c2C(C)C)cn2ncnc12 (single isomer, unassigned) [Example 396]
c = COCCN1CC(c2ccc3[nH]c(-c4cn(C)c(=O)c(C)c4C)c(C(C)C)c3c2)C1
# input hey, can you rank those compounds up there by IC50? biggest number first please Answer by naming the labels in the order asked.
# output c, b, a
(c: 10500 nM, b: 2380 nM, a: 602 nM)

A = Cc1cc(-c2[nH]c3ccc([C@H]4C[C@H]4C(=O)N4CC5CNCC5C4)cc3c2C(C)C)ccn1 (some centres unmarked)
B = COc1ccc(-c2[nH]c3ccc(C4CCCNC4)cc3c2C(C)C)cc1OC (centres unmarked)
# input Smaller IC50 value? Options are A and B Return value: the label identifying the chosen record.
# output A
(A: 326 nM, B: 1470 nM)
